Molecular target: T1, RXFP1 receptor (endogenous, on OVCAR5 cells) (UniProt Q9HBX9 1-757, limits assumed)
T1 sequence (looked up): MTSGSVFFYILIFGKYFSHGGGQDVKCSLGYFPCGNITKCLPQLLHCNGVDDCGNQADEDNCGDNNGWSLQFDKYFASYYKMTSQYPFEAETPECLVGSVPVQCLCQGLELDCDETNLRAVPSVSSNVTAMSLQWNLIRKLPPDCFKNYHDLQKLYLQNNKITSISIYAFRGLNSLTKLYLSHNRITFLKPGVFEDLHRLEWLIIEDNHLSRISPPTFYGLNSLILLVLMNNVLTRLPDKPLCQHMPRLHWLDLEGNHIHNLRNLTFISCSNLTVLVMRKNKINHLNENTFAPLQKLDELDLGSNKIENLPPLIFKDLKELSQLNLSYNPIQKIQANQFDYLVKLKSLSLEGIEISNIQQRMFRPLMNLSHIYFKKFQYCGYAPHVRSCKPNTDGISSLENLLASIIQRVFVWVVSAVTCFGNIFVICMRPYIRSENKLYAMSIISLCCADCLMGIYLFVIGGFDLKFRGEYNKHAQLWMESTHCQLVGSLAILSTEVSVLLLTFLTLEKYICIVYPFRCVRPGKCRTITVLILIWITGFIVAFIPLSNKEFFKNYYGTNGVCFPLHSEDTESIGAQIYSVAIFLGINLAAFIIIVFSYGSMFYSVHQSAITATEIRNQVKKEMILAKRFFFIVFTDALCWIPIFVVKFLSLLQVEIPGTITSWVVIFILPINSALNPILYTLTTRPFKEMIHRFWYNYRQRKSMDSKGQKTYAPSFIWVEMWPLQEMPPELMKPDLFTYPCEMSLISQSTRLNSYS
Assay: cell-based or functional assay
Starred links: 1 amine or outer side, 2 acyl side, 3 side chain; linkers in the order of their positions; H or OH if unused. Non-standard residues stand in square brackets, D forms with d. Groups on a side chain read outwards from the residue. *: point of attachment. TTDS = 4-[3-[2-[2-(3-aminopropoxy)ethoxy]ethoxy]propylamino]-4-oxo-butanoyl; γGlu = O=C(O)[C@H](CCC(=O)[*:2])N[*:1]; Stearoyl = CCCCCCCCCCCCCCCCCC(=O)*; Palmitoyl = CCCCCCCCCCCCCCCC(=O)*; αMeF = C[C@](N)(Cc1ccccc1)C(=O)O; αMeK = C[C@](N)(CCCCN)C(=O)O; Aib = CC(C)(N)C(=O)O
Here the recorded EC50 (nM), OVCAR 5 cells (cAMP) is given for each entry.
Please state the figure in nM; there is no need to write the unit.

- binder: "Ac-LEGREKVRAK(Ac)I[Aib][Aib]EGK([TTDS-TTDS-TTDS-γGlu-γGlu-γGlu-Palmitoyl])STWS[Aib]RK(Ac)R-NH2 [peptide of SEQ ID NO: 69]"
  EC50 (nM), OVCAR 5 cells (cAMP): 0.78
- binder: "Ac-LEGREKVRAK(Ac)I[Aib][Aib]EGK([TTDS-TTDS-γGlu-γGlu-γGlu-Stearoyl])STFS[αMeK]RAK(Ac)-NH2 [peptide of SEQ ID NO: 34]"
  EC50 (nM), OVCAR 5 cells (cAMP): 0.14
- binder: "Ac-LEGRELVRAK(Ac)I[Aib][Aib]EGK([TTDS-TTDS-TTDS-γGlu-γGlu-γGlu-Palmitoyl])STFS[αMeK]RAK(Ac)-NH2 [peptide of SEQ ID NO: 23]"
  EC50 (nM), OVCAR 5 cells (cAMP): 11.1
- binder: "Ac-LEGRERVRAK(Ac)I[Aib][Aib]EGK([TTDS-TTDS-TTDS-γGlu-γGlu-γGlu-Palmitoyl])STWS[Aib]RKK(Ac)-NH2 [peptide of SEQ ID NO: 67]"
  EC50 (nM), OVCAR 5 cells (cAMP): 0.48
- binder: "Ac-LEGREKVRAK(Ac)I[Aib][Aib]EGK([TTDS-TTDS-TTDS-γGlu-γGlu-γGlu-Palmitoyl])STFS[αMeK]RAK(Ac)-NH2 [peptide of SEQ ID NO: 3]"
  EC50 (nM), OVCAR 5 cells (cAMP): 0.34
- binder: "Ac-LEGRERVRAK(Ac)I[Aib][Aib]EGK([TTDS-TTDS-TTDS-TTDS-γGlu-γGlu-γGlu-Palmitoyl])STFS[Aib]RRK(Ac)-NH2 [peptide of SEQ ID NO: 77]"
  EC50 (nM), OVCAR 5 cells (cAMP): 0.11

Determine its reported EC50 (nM), OVCAR 5 cells (cAMP): Ac-LEGRERVR[Aib]K(Ac)I[Aib][Aib]EGK([TTDS-TTDS-TTDS-γGlu-γGlu-γGlu-Palmitoyl])STWS[Aib]RRK(Ac)-NH2 [peptide of SEQ ID NO: 85]
0.3

// Input: Ac-LEGREKVRAK(Ac)I[Aib][Aib]EGK([TTDS-TTDS-TTDS-γGlu-γGlu-γGlu-Palmitoyl])ST[αMeF]SRRAK(Ac)-NH2 [peptide of SEQ ID NO: 89] . Output its EC50 (nM), OVCAR 5 cells (cAMP) only.
0.1

Return EC50 (nM), OVCAR 5 cells (cAMP) for the following binder: Ac-K(Ac)EGREKVRAK(Ac)I[Aib][Aib]EGK([TTDS-TTDS-TTDS-γGlu-γGlu-γGlu-Palmitoyl])STFS[αMeK]RAK(Ac)-NH2 [peptide of SEQ ID NO: 81]
0.16
